Parameter T/C: see the listing below.
# Tested on: CD2F1 mice, L1210 leukemia ip, survival T/C
# ASSAY_PROTOCOL: NCI In Vivo Anticancer Drug Screen. Data for tumor model L1210 Leukemia (intraperitoneal) in CD2F1 (CDF1) mice
# DETAILS: endpoint: mean survival time; dose: 100.0 mg/kg/injection; schedule: Q01DX009 (ip); vehicle: saline with Tween-80; higher = longer survival
# Procedure: The antitumor activity of compounds was measured in mice bearing transplantable tumors. Survival or tumor size were measured and the results are expressed as the measurement made in the treated group (T) divided by the measurement made in the vehicle treated control group (C). The tumor model used in this assay is L1210 Leukemia (intraperitoneal) in CD2F1 (CDF1) mice
Inconclusive results and toxic doses are left out.

1) Nc1[nH]c(=O)[nH]c(=O)c1N | 93 % of control
2) CCOC(=O)CCOc1ccccc1N(CCCl)CCCl | 87 % of control
3) Cc1ccc([N+](=O)[O-])cc1NC(=O)NNC(=O)CNC(=O)Nc1cccc([N+](=O)[O-])c1 | 88 % of control

Just so you know, measured T/C for CN1C(=O)CN(CCN2CC(=O)N(c3ccccc3)C2=S)C1=S came out at 93 % of control

Just so you know, measured T/C for O=C(CNC(=O)Nc1cccc([N+](=O)[O-])c1)NNC(=O)Nc1ccccc1F came out at 88 % of control

Just so you know, measured T/C for Cc1csc2nc[nH]c(=O)c12 came out at 97 % of control

Just so you know, measured T/C for CCCC(=O)Nc1ccccc1 came out at 102 % of control

====

Parameter T/C: see the listing below.
# System: CD2F1 mice, L1210 leukemia ip, survival T/C
# ASSAY_PROTOCOL: NCI In Vivo Anticancer Drug Screen. Data for tumor model L1210 Leukemia (intraperitoneal) in CD2F1 (CDF1) mice
# DETAILS: endpoint: mean survival time; dose: 200.0 mg/kg/injection; schedule: Q01DX001 (ip); vehicle: other; higher = longer survival
Toxic doses and inconclusive results are not listed.

Worked examples follow.
1) c1coc(CNC2=NCCO2)c1 | 103 % of control
2) Nc1nc(N)c(-c2ccc(Cl)cc2)c(CNc2cccc([N+](=O)[O-])c2)n1 | 94 % of control
3) Nc1ccc(SCCCc2c(N)nc(N)nc2N)cc1 | 96 % of control
4) Oc1c(O)c(Br)c(Br)c(Br)c1Br | 103 % of control

Proceed to the following item.
Just so you know, measured T/C for O=C(N/N=C/c1ccc(O)cc1)c1ccccc1 came out at 94 % of control

====

# System: CD2F1 mice, L1210 leukemia ip, survival T/C
# ASSAY_PROTOCOL: NCI In Vivo Anticancer Drug Screen. Data for tumor model L1210 Leukemia (intraperitoneal) in CD2F1 (CDF1) mice
# DETAILS: endpoint: mean survival time; dose: 100.0 mg/kg/injection; schedule: Q01DX009 (ip); vehicle: other; higher = longer survival
Toxic doses and inconclusive results are not listed.
MEASURED_ENDPOINT: T/C

Worked examples follow.
1) CC(C)OC(=O)Nc1cc(F)ccc1F | 97 % of control
2) COc1ccc(C(=O)NCCc2ccc(OC)c(OC)c2)cc1O | 90 % of control

Just so you know, measured T/C for COc1ccc(OC)c(NC(=O)N2CCCC(C)C2)c1 (configuration not stated) came out at 124 % of control

Just so you know, measured T/C for Cc1c(OCc2ccccc2)cccc1[N+](=O)[O-] came out at 97 % of control

Just so you know, measured T/C for CCCCCCCC(O)CCCCCCC came out at 101 % of control

Just so you know, measured T/C for Cc1cc(OC(=O)Nc2cccc(Cl)c2Cl)ccc1Cl came out at 101 % of control

====

# Test system: CD2F1 mice, L1210 leukemia ip, survival T/C
# ASSAY_PROTOCOL: NCI In Vivo Anticancer Drug Screen. Data for tumor model L1210 Leukemia (intraperitoneal) in CD2F1 (CDF1) mice
# DETAILS: endpoint: median survival time; dose: 50.0 mg/kg/injection; schedule: Q01DX005 (ip); vehicle: saline; higher = longer survival
Toxic doses and inconclusive results are not listed.
Parameter T/C: see the listing below.

1. CC#CCOCC(O)CCl (centres undefined) | 97 % of control
2. O=C1Cc2c([nH]c(=S)[nH]c2=O)N1 | 94 % of control
3. Cc1nc2c(c[n+]1C)CN1C=Nc3c(ncn3C3OC(CO)C(O)C3O)C1=N2 (centres undefined) | 100 % of control

Proceed to the following item.
Just so you know, measured T/C for [N-]=[N+]=NC1CC(n2ccc(=O)[nH]c2=O)OC1CO (centres undefined) came out at 100 % of control

====

# Test system: CD2F1 mice, L1210 leukemia ip, survival T/C
# ASSAY_PROTOCOL: NCI In Vivo Anticancer Drug Screen. Data for tumor model L1210 Leukemia (intraperitoneal) in CD2F1 (CDF1) mice
# DETAILS: endpoint: mean survival time; dose: 400.0 mg/kg/injection; schedule: Q04DX003 (ip); vehicle: saline with Tween-80; higher = longer survival
Toxic doses and inconclusive results are not listed.
Parameter T/C: see the listing below.

Worked examples follow.
1. Nc1ccc(-c2ccc(N)c([N+](=O)[O-])c2)cc1[N+](=O)[O-] | 86 % of control
2. CCCCCC(CC)OC(=O)Nc1cccc2ccccc12 (stereo not drawn) | 100 % of control
3. COC(=O)C(CCCCN)NC(=O)c1ccccc1 (stereo not drawn) | 101 % of control
4. CC(C)CCOC(=O)CN(CC(=O)OCCC(C)C)c1ccccc1 | 105 % of control
5. Cc1ccc(-c2[nH]c(=S)[nH]c(=O)c2CCO)cc1 | 93 % of control

Entry CCC1(c2cccc([N+](=O)[O-])c2)OCCO1 ; assay system CD2F1 mice, L1210 leukemia ip, survival T/C; T/C recorded at 102 % of control

Entry CC(=O)Nc1ccc(S(=O)(=O)OCCCl)cc1 ; assay system CD2F1 mice, L1210 leukemia ip, survival T/C; T/C recorded at 102 % of control

====

# Tested on: CD2F1 mice, L1210 leukemia ip, survival T/C
# ASSAY_PROTOCOL: NCI In Vivo Anticancer Drug Screen. Data for tumor model L1210 Leukemia (intraperitoneal) in CD2F1 (CDF1) mice
# DETAILS: endpoint: mean survival time; dose: 100.0 mg/kg/injection; schedule: Q04DX003 (ip); vehicle: saline with Tween-80; higher = longer survival
Inconclusive results and toxic doses are left out.
MEASURED_ENDPOINT: T/C

Worked examples follow.
1. CC1(C)C2CC=C(CCN=[N+]=[N-])C1C2 (stereo unspecified) | 105 % of control
2. O=[N+]([O-])c1cccc(S(=O)(=O)Nc2ccccc2Cl)c1 | 96 % of control
3. Cc1nc(C(=O)O)c(C(=O)O)[nH]1 | 100 % of control
4. CC(C)CCCC(C)C1CCC2C3CC(CO)C4CC(O)CCC4(C)C3CCC12C (stereo unspecified) | 87 % of control
5. O=C(C(Oc1ccc(Cl)cc1)Oc1ccc(Cl)cc1)N(O)c1ccccc1OCc1ccccc1 | 102 % of control

Just so you know, measured T/C for CC1=NN(c2ccccc2)C(=O)C1N=Nc1ccc([As](=O)(O)O)c(O)c1 (stereo unspecified) came out at 106 % of control

Just so you know, measured T/C for O=S(=O)(Nc1ccc(NS(=O)(=O)c2ccccc2)c2ccccc12)c1ccccc1 came out at 97 % of control

Just so you know, measured T/C for Cc1c(C)c([N+](=O)[O-])c(Br)c(C)c1[N+](=O)[O-] came out at 95 % of control

Just so you know, measured T/C for Cc1cc2nc(-c3ccccc3)c(-c3ccccc3)nc2cc1C came out at 94 % of control

Just so you know, measured T/C for CCOC(=O)Cc1nnc(N)s1 came out at 96 % of control

Just so you know, measured T/C for O=C(CC(NC(=O)OCc1ccccc1)C(=O)O)OCc1ccccc1 (stereo unspecified) came out at 103 % of control

====

# Tested on: CD2F1 mice, L1210 leukemia ip, survival T/C
# ASSAY_PROTOCOL: NCI In Vivo Anticancer Drug Screen. Data for tumor model L1210 Leukemia (intraperitoneal) in CD2F1 (CDF1) mice
# DETAILS: endpoint: mean survival time; dose: 12.5 mg/kg/injection; schedule: Q04DX003 (ip); vehicle: saline with Tween-80; higher = longer survival
Inconclusive results and toxic doses are left out.
Parameter T/C: see the listing below.

Worked examples follow.
1) N=C1N(c2ccccc2)CCN1c1ccccc1 | 92 % of control
2) COC(=O)C=P(c1ccccc1)(c1ccccc1)c1ccccc1 | 101 % of control
3) c1ccc(Sc2cccc3c(-c4ccccc4)c4cccc5c4c(c23)C[S+]5c2ccccc2)cc1 (stereo not given) | 93 % of control
4) [Co].[O-][Cl+3]([O-])([O-])O.c1ccc([PH+](CC[PH+](c2ccccc2)c2ccccc2)c2ccccc2)cc1.c1ccc([PH+](CC[PH+](c2ccccc2)c2ccccc2)c2ccccc2)cc1 | 98 % of control
5) CCCCCCCCCCCCCCCc1ccc(C(=O)C[n+]2ccccc2)cc1 | 103 % of control
6) CCCCCCCCCCCCNC(=O)C[n+]1cccc(C(=O)Nc2ccccc2)c1 | 100 % of control
7) CCC(C)OP(=S)(S)OC(C)CC.[Zn+2] (stereo not given) | 95 % of control
8) O=[As](O)(CC(O)COc1ccc(Cl)cc1Cl)c1cccc(Cl)c1 (stereo not given) | 110 % of control

Just so you know, measured T/C for CS(=O)(=O)C(Cl)(Cl)S(C)(=O)=O came out at 91 % of control

Just so you know, measured T/C for C=COCC(C)C (tested in a mixture with another compound) came out at 87 % of control
